target: EML4-ALK G1202R transformed Ba/F3 cells (Homo sapiens, UniProt Q9HC35+Q9UM73, G1202R); conditions: 1 µM, result in words
Sequence (Q9UM73 1058-1620 G1202R limits assumed, one chain of several): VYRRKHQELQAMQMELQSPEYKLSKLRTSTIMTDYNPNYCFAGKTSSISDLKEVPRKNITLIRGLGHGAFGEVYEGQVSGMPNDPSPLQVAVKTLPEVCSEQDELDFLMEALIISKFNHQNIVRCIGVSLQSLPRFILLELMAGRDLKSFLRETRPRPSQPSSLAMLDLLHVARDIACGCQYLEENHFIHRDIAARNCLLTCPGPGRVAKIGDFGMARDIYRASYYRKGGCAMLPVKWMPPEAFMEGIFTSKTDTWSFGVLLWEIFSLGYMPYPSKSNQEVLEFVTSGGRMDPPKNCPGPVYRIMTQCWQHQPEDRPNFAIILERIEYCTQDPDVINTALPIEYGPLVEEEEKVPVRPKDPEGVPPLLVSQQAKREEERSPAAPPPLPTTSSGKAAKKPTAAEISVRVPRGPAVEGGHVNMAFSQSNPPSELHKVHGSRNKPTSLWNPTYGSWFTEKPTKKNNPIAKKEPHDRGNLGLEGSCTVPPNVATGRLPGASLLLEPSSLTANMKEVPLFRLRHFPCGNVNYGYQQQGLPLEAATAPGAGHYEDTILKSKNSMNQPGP
assay_metric: single point inhibition of the G1202R mutant

smiles=CCc1cc2c(cc1C(=O)O)C(C)(C)c1[nH]c3cc(C#N)ccc3c1C2=O recorded_value="much less potent"
smiles=CCc1cc2c(cc1C#N)C(C)(C)c1[nH]c3cc(C#N)ccc3c1C2=O recorded_value="much less potent"
